assay: concentrations in pooled plasma of EHBRs 12 h after oral GA (200 mg/kg); format: in vivo; settings: Eisai Hyperbilirubinemia rats (EHBR), rat, female, read-out: concentration in pooled plasma, female EHBRs
Readout type: concentration at 12 h (µM)
Record the value in µM, omitting the unit from your answer.

Lookup: // lookup concentration at 12 h for CC1(C(=O)OC2OC(C(=O)O)C(O)C(O)C2O)CC(O)C2(C)CCC3(C)C(=CC(=O)C4C5(C)CCC(OS(=O)(=O)O)C(C)(C)C5CCC43C)C2C1 (centres unmarked) [Compound 1]
Found: 15

Lookup: Can you share its concentration at 12 h? I mean this compound: CC1(C)[C@@H](O)CC[C@]2(C)[C@H]3C(=O)C=C4[C@@H]5C[C@@](C)(C(=O)O)CC[C@]5(C)CC[C@@]4(C)[C@]3(C)CC[C@@H]12 [GA, 18β-glycyrrhetinic acid]
Found: 7
